Test system: human primary hepatocytes
Experiment: Metabolic disposition of [^14C]-Compound 1 and [^14C]-2′-C-methyl guanosine in human primary hepatocytes (incubation medium, cellular extracts, nucleotide levels)
Assay type: in vitro ADME
Details: human hepatocytes (Hu775), 1 μM [^14C]-Compound 1, 8 h
metric: metabolites observed in cellular extracts (% of total radioactivity) (%)

Consider the following illustrative entries.
C[C@@]1(O)[C@H](O)[C@@H](CO)O[C@H]1n1cnc2c(=O)[nH]c(N)nc21 [2′-C-methyl guanosine, 9-(2-C-methyl-β-D-ribofuranosyl)guanine, reference compound] : 4.34
C[C@@]1(O)[C@H](O)[C@@H](COP(=O)(O)O)O[C@H]1n1cnc2c(=O)[nH]c(N)nc21 : 3.60
CC(C)(CO)C(=O)SCCOP(=O)(NCc1ccccc1)OC[C@H]1O[C@@H](n2cnc3c(=O)[nH]c(N)nc32)[C@](C)(O)[C@@H]1O (mixture of isomers) : 4.07

(P) C[C@@]1(O)[C@H](O)[C@@H](COP(=O)(O)OP(=O)(O)OP(=O)(O)O)O[C@H]1n1cnc2c(=O)[nH]c(N)nc21
(Q) C[C@@]1(O)[C@H](O)[C@@H](COP(=O)(O)OP(=O)(O)O)O[C@H]1n1cnc2c(=O)[nH]c(N)nc21
Recorded metabolites observed in cellular extracts (% of total radioactivity) values differ for P and Q ; which one is higher? Kindly give the label for the entry you pick.
P

====

Test: Incubation with monkey liver cytosol
Assay type: in vitro ADME
Conditions: monkey cytosol 1 mg/mL, 2 hours, 10 μM
Procedure: Pooled liver cytosol (1.0 mg protein/mL) suspended in incubation buffer (0.1 M potassium phosphate, pH 7.4) was incubated for 2 hours at 37° C. with 10 μM Compound 1 from a stock solution in DMSO (final DMSO concentration was 0.1%); reaction was initiated with the addition of test article. […] The supernatant was dried using a Labconco CentriVap concentrator and the dry residue reconstituted in water, transferred to an HPLC glass vial and analyzed by HPLC-UV method 2 (described above). […]
metric: Residual compound following incubation with liver cytosol (%)

Consider the following illustrative entries.
CC(C)(CO)C(=O)SCCOP(N)(=O)OC[C@H]1O[C@@H](n2cnc3c(=O)[nH]c(N)nc32)[C@](C)(O)[C@@H]1O (mixture of isomers) : 99
CC(C)(CO)C(=O)SCCOP(=O)(NCc1ccccc1)OC[C@H]1O[C@@H](n2cnc3c(=O)[nH]c(N)nc32)[C@](C)(O)[C@@H]1O (mixture of isomers) : 100

(a) C[C@@]1(O)[C@H](O)[C@@H](COP(N)(=O)O)O[C@H]1n1cnc2c(=O)[nH]c(N)nc21
(b) C[C@@]1(O)[C@H](O)[C@@H](COP(=O)(O)NCc2ccccc2)O[C@H]1n1cnc2c(=O)[nH]c(N)nc21
Recorded Residual compound following incubation with liver cytosol values differ for a and b ; which one is higher? Kindly give the label for the entry you pick.
a

====

Test system: pig liver esterase
Experiment: Incubation with pig liver esterase
Format: in vitro ADME
Settings: Esterase 14 U, 60 min, 10 μM
metric: Residual compound following incubation with pig liver esterase (%)

Consider the following illustrative entries.
C[C@@]1(O)[C@H](O)[C@@H](COP(N)(=O)O)O[C@H]1n1cnc2c(=O)[nH]c(N)nc21 [Compound 4] : 100
CC(C)(CO)C(=O)SCCOP(=O)(NCc1ccccc1)OC[C@H]1O[C@@H](n2cnc3c(=O)[nH]c(N)nc32)[C@](C)(O)[C@@H]1O (mixture of isomers) [Compound 1] : 75

(A) CC(C)(CO)C(=O)SCCOP(N)(=O)OC[C@H]1O[C@@H](n2cnc3c(=O)[nH]c(N)nc32)[C@](C)(O)[C@@H]1O (mixture of isomers) [Compound 3]
(B) C[C@@]1(O)[C@H](O)[C@@H](COP(=O)(O)NCc2ccccc2)O[C@H]1n1cnc2c(=O)[nH]c(N)nc21 [Compound 2]
Between A and B , which one shows the smaller Residual compound following incubation with pig liver esterase number? Kindly give the label for the entry you pick.
B
(B: 0%, A: 97%)

====

Test system: Huh-7 cells
Assay: Metabolic disposition of [^14C]-Compound 1 and [^14C]-2′-C-methyl guanosine in Huh-7 cells (incubation medium, cellular extracts, nucleotide levels)
Assay type: in vitro ADME, human
Details: Huh7; 10 μM [^14C]-Compound 1; 72 h; first series
Entries and their Major metabolites observed in cellular extracts (% of total radioactivity)

Consider the following illustrative entries.
C[C@@]1(O)[C@H](O)[C@@H](COP(=O)(O)O)O[C@H]1n1cnc2c(=O)[nH]c(N)nc21 [Compound 5] : 6.93 % of total radioactivity
C[C@@]1(O)[C@H](O)[C@@H](COP(=O)(O)OP(=O)(O)OP(=O)(O)O)O[C@H]1n1cnc2c(=O)[nH]c(N)nc21 [Compound 7] : 72.1 % of total radioactivity
CC(C)(CO)C(=O)SCCOP(=O)(NCc1ccccc1)OC[C@H]1O[C@@H](n2cnc3c(=O)[nH]c(N)nc32)[C@](C)(O)[C@@H]1O (mixture of isomers) [Compound 1] : 14.1 % of total radioactivity

Now consider the entry below.
Form: molecule = C[C@@]1(O)[C@H](O)[C@@H](COP(=O)(O)OP(=O)(O)O)O[C@H]1n1cnc2c(=O)[nH]c(N)nc21 [Compound 6] ; Major metabolites observed in cellular extracts (% of total radioactivity) = 6.86 % of total radioactivity

====

Assay: Metabolite profile in rat urine
Type: in vivo, male Sprague-Dawley rats
Settings: group 1C (IV dose) pooled urine, 1 h collection
metric: % AD (percent of administered dose) (% AD)

Consider the following illustrative entries.
CC(C)(CO)C(=O)SCCOP(N)(=O)OC[C@H]1O[C@@H](n2cnc3c(=O)[nH]c(N)nc32)[C@](C)(O)[C@@H]1O (single isomer, unassigned; diastereomer 2) [Compd 3 Diastereomer 2] : 0.23
CC(C)(CO)C(=O)SCCOP(=O)(NCc1ccccc1)OC[C@H]1O[C@@H](n2cnc3c(=O)[nH]c(N)nc32)[C@](C)(O)[C@@H]1O (mixture of isomers) [Compound 1] : 21.39
C[C@@]1(O)[C@H](O)[C@@H](CO)O[C@H]1n1cnc2c(=O)[nH]c(N)nc21 [2′-C-methyl guanosine, 9-(2-C-methyl-β-D-ribofuranosyl)guanine, reference compound] : 0.48

(A) C[C@@]1(O)[C@H](O)[C@@H](COP(=O)(O)NCc2ccccc2)O[C@H]1n1cnc2c(=O)[nH]c(N)nc21 [Compound 2]
(B) CC(C)(CO)C(=O)SCCOP(N)(=O)OC[C@H]1O[C@@H](n2cnc3c(=O)[nH]c(N)nc32)[C@](C)(O)[C@@H]1O (single isomer, unassigned; diastereomer 1) [Compd 3 Diastereomer 1]
Recorded % AD (percent of administered dose) values differ for A and B ; which one is higher? Kindly give the label for the entry you pick.
A
(A: 0.52 % AD, B: 0.05 % AD)

====

System: rat primary hepatocytes
Assay: Metabolic disposition of [^14C]-Compound 1 and [^14C]-2′-C-methyl guanosine in rat primary hepatocytes (incubation medium, cellular extracts, nucleotide levels)
Format: in vitro ADME, Sprague Dawley rat
Settings: rat hepatocytes Rs448; 10 μM [^14C]-2′-C-methyl guanosine; 8 h
Entries and their Major metabolites observed in cellular extracts (% of total radioactivity)

Consider the following illustrative entries.
C[C@@]1(O)[C@H](O)[C@@H](COP(=O)(O)OP(=O)(O)OP(=O)(O)O)O[C@H]1n1cnc2c(=O)[nH]c(N)nc21 [Compound 7] : 24.1 % of total radioactivity
C[C@@]1(O)[C@H](O)[C@@H](COP(=O)(O)OP(=O)(O)O)O[C@H]1n1cnc2c(=O)[nH]c(N)nc21 [Compound 6] : 4.76 % of total radioactivity

Now consider the entry below.
Form: compound = C[C@@]1(O)[C@H](O)[C@@H](CO)O[C@H]1n1cnc2c(=O)[nH]c(N)nc21 [2′-C-methyl guanosine, 9-(2-C-methyl-β-D-ribofuranosyl)guanine, reference compound] ; Major metabolites observed in cellular extracts (% of total radioactivity) = 69.2 % of total radioactivity

====

System: Huh-7 cells
Experiment: Metabolic disposition of [^14C]-Compound 1 and [^14C]-2′-C-methyl guanosine in Huh-7 cells (incubation medium, cellular extracts, nucleotide levels)
Format: in vitro ADME, human
Details: Huh7; 10 μM [^14C]-2′-C-methyl guanosine; 24 h
Entries and their Major metabolites observed in cellular extracts (% of total radioactivity)

C[C@@]1(O)[C@H](O)[C@@H](COP(=O)(O)OP(=O)(O)OP(=O)(O)O)O[C@H]1n1cnc2c(=O)[nH]c(N)nc21 [Compound 7] : 10.5 % of total radioactivity

Now consider the entry below.
Form field, Major metabolites observed in cellular extracts (% of total radioactivity) with Huh-7 cells, item C[C@@]1(O)[C@H](O)[C@@H](CO)O[C@H]1n1cnc2c(=O)[nH]c(N)nc21 [2′-C-methyl guanosine, 9-(2-C-methyl-β-D-ribofuranosyl)guanine, reference compound] : 89.5 % of total radioactivity
